- EXPERIMENT_SUMMARY: Lipophilicity, log D of compound at pH 7.4
- Format: physicochemical
- CONDITION_NOTES: buffer
READOUT_NAME: logD

[[record]]
chemical_smiles = "O=C1C(=O)c2nc(CNc3cccc(F)c3)oc2-c2ccccc21"
readout_name = "logD"
meas_value = 3.18

[[record]]
chemical_smiles = "CC1(C)CCC2=C(O1)c1ccccc1C(=O)C2=O"
readout_name = "logD"
meas_value = 2.85

[[record]]
chemical_smiles = "O=C1C(=O)c2nc(CN3CCN(Cc4ccccc4)CC3)oc2-c2ccccc21"
readout_name = "logD"
meas_value = 1.88

[[record]]
chemical_smiles = "O=C1C(=O)c2nc(CNc3ccc(Cl)cc3)oc2-c2ccccc21"
readout_name = "logD"
meas_value = 2.65


----------
- EXPERIMENT_SUMMARY: Cytotoxicity against human L02 cells after 2 hrs by MTT assay
- Format: cell-based
- CONDITION_NOTES: L02, 2 h
READOUT_NAME: IC50 (µM)

[[record]]
chemical_smiles = "O=C1C(=O)c2nc(CN3CCN(Cc4ccccc4)CC3)oc2-c2ccccc21"
meas_value = 70


----------
In this section, each of the compounds is paired with its reported Drug metabolism.
- TARGET_SYSTEM: NAD(P)H dehydrogenase [quinone] 1 (Homo sapiens)
- Sequence (P15559 whole entry): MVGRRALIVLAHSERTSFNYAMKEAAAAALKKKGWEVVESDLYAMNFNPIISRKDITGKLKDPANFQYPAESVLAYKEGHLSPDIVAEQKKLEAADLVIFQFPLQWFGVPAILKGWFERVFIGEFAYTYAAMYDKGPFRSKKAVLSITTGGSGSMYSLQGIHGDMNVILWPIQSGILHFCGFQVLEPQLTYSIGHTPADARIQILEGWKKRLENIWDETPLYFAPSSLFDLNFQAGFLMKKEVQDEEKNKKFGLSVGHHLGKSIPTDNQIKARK
- EXPERIMENT_SUMMARY: Drug metabolism assessed as recombinant human NQO1-mediated NADPH oxidation to NADP+ per micromol of protein preincubated for 3 mins followed by NADPH addition measured at 2 s intervals for 5 mins by enzyme labelling instrument-based assay
- Format: ADME
READOUT_NAME: Drug metabolism (µmol/min)

[[record]]
compound = "CC1(C)CCC2=C(O1)c1ccccc1C(=O)C2=O [LAPACHONE]"
target_system = "NAD(P)H dehydrogenase [quinone] 1 (Homo sapiens)"
readout_name = "Drug metabolism"
meas_value = 1210

[[record]]
compound = "Cc1ccc(NCc2nc3c(o2)-c2ccccc2C(=O)C3=O)cc1"
target_system = "NAD(P)H dehydrogenase [quinone] 1 (Homo sapiens)"
readout_name = "Drug metabolism"
meas_value = 968

[[record]]
compound = "CCc1nc2c(o1)-c1ccccc1C(=O)C2=O"
target_system = "NAD(P)H dehydrogenase [quinone] 1 (Homo sapiens)"
readout_name = "Drug metabolism"
meas_value = 955

[[record]]
compound = "COc1ccc(NCc2nc3c(o2)-c2ccccc2C(=O)C3=O)cc1"
target_system = "NAD(P)H dehydrogenase [quinone] 1 (Homo sapiens)"
readout_name = "Drug metabolism"
meas_value = 1063

[[record]]
compound = "COc1ccccc1NCc1nc2c(o1)-c1ccccc1C(=O)C2=O"
target_system = "NAD(P)H dehydrogenase [quinone] 1 (Homo sapiens)"
readout_name = "Drug metabolism"
meas_value = 990

[[record]]
compound = "O=C1C(=O)c2nc(CN3CCN(c4ccccc4)CC3)oc2-c2ccccc21"
target_system = "NAD(P)H dehydrogenase [quinone] 1 (Homo sapiens)"
readout_name = "Drug metabolism"
meas_value = 1139

[[record]]
compound = "O=C1C(=O)c2nc(CN3CCN(Cc4ccccc4)CC3)oc2-c2ccccc21"
target_system = "NAD(P)H dehydrogenase [quinone] 1 (Homo sapiens)"
readout_name = "Drug metabolism"
meas_value = 1360

[[record]]
compound = "CN(C)Cc1nc2c(o1)-c1ccccc1C(=O)C2=O"
target_system = "NAD(P)H dehydrogenase [quinone] 1 (Homo sapiens)"
readout_name = "Drug metabolism"
meas_value = 939

[[record]]
compound = "O=C1C(=O)c2nc(CNc3ccc(Cl)cc3)oc2-c2ccccc21"
target_system = "NAD(P)H dehydrogenase [quinone] 1 (Homo sapiens)"
readout_name = "Drug metabolism"
meas_value = 1522

[[record]]
compound = "COc1cccc(NCc2nc3c(o2)-c2ccccc2C(=O)C3=O)c1"
target_system = "NAD(P)H dehydrogenase [quinone] 1 (Homo sapiens)"
readout_name = "Drug metabolism"
meas_value = 955

[[record]]
compound = "O=C1C(=O)c2nc(CN3CCOCC3)oc2-c2ccccc21"
target_system = "NAD(P)H dehydrogenase [quinone] 1 (Homo sapiens)"
readout_name = "Drug metabolism"
meas_value = 686

[[record]]
compound = "Cc1nc2c(o1)-c1ccccc1C(=O)C2=O"
target_system = "NAD(P)H dehydrogenase [quinone] 1 (Homo sapiens)"
readout_name = "Drug metabolism"
meas_value = 1202

[[record]]
compound = "O=C1C(=O)c2nc(CNc3cccc(F)c3)oc2-c2ccccc21"
target_system = "NAD(P)H dehydrogenase [quinone] 1 (Homo sapiens)"
readout_name = "Drug metabolism"
meas_value = 1391

